target.desc: cholesterol side-chain cleavage cytochrome P450 (mitochondrial) (Bos taurus, UniProt P00189)
Sequence (P00189 whole entry): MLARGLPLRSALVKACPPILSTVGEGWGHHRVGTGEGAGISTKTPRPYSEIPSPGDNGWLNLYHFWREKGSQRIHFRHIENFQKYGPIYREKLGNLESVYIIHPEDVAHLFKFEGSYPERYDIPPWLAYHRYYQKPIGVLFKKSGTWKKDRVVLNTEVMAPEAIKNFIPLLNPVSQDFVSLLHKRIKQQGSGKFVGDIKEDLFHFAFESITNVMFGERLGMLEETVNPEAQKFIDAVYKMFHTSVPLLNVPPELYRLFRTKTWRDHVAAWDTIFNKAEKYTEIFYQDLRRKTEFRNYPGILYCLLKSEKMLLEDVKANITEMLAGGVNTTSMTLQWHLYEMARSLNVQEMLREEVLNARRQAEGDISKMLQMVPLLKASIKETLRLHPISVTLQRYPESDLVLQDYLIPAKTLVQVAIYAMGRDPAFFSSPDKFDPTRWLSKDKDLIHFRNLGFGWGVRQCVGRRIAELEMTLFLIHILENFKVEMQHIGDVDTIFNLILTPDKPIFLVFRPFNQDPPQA
experimental.details: Percent inhibition of cholesterol side-chain cleavage cytochrome P450 at 1 uM in bovine adrenocortical mitochondrial acetone powder preparations
assay.setup: cattle
property: inhibition at 1 µM (%)
Answer with a number only, understood to be in %.

Observe how each entry below is paired with its result.
[[record]]
compound = "CC(NC(=O)Cc1cccc(I)c1)C1CCC2C3CC=C4CC(O)CCC4(C)C3CCC12C (centres undefined)"
numeric_result = 18

[[record]]
compound = "CC(NC(=O)c1ccccc1)C1CCC2C3CC=C4CC(O)CCC4(C)C3CCC12C (centres undefined)"
numeric_result = 53

[[record]]
compound = "CC(NCCc1ccc(Cl)cc1)C1CCC2C3CC=C4CC(O)CCC4(C)C3CCC12C (centres undefined)"
numeric_result = 22


Please look at the following compound next.
Ask | Hello, please tell me recorded inhibition at 1 µM for this one: CC(NC(=O)Cc1ccc([N+](=O)[O-])cc1)C1CCC2C3CC=C4CC(O)CCC4(C)C3CCC12C (centres undefined)
Reply | 22
